Numbers sourced from patent US20260125400A1.

Target: TYK2 (Homo sapiens)
Construct: Degradation of TYK2 in cells was quantitatively measured using Meso Scale Discovery (MSD) technology; endogenous in cells; host or cells: OCI-LY10
Test: TYK2 MSD degradation in OCI-LY10 cells
Type: cell-based
Conditions: TYK2 degradation in OCI-LY10 cells, 4 to 24 hours incubation
measured.endpoint: TYK2 MSD OCI-LY10 Dmax %

Below, each entry is followed by its recorded TYK2 MSD OCI-LY10 Dmax % result.
# compound, TYK2 MSD OCI-LY10 Dmax %
data = [
    ("CNc1cc(N2CCc3c(-c4ccc(N5CCC6(CCN(Cc7ccc(N8CCC(=O)NC8=O)c(Cl)c7)CC6)CC5)cn4)cccc32)nn2c(C(=O)N[C@@H]3C[C@@H]3F)cnc12", "C (C (75 to 50%))"),
    ("CNc1cc(N2CCc3c(-c4ccc(CN5CCC6(CC5)CCN(C(=O)c5ccc(Cl)c(C7CCC(=O)NC7=O)c5)CC6)cn4)cccc32)nn2c(C(=O)N[C@@H]3C[C@@H]3F)cnc12 (stereo partly shown)", "B (B (90 to >75%))"),
    ("CNc1cc(N2CCc3c(-c4ccc(CN5CCC6(CCN(Cc7ccc(Cl)c(N8CCC(=O)NC8=O)c7)CC6)C(F)(F)C5)cn4)cccc32)nn2c(C(=O)N[C@@H]3C[C@@H]3F)cnc12", "D (D (<50%))"),
    ("CNc1cc(N2CCc3c(-c4ccc(CN5CCC(N6CCC(C7CCN(c8ccc9c(c8)n(C)c(=O)n9C8CCC(=O)NC8=O)CC7)CC6)C(F)(F)C5)cn4)cccc32)nn2c(C(=O)N[C@@H]3C[C@@H]3F)cnc12 (stereo partly shown)", "B (B (90 to >75%))"),
    ("CNc1cc(N2CCc3c(-c4ccc(CN5CCC(Oc6ccc(C7CCC(=O)NC7=O)c(Cl)c6)CC5)cn4)cccc32)nn2c(C(=O)N[C@@H]3C[C@@H]3F)cnc12 (stereo partly shown)", "B (B (90 to >75%))"),
]

Look at each compound and report its TYK2 MSD OCI-LY10 Dmax %.
1. CNc1cc(N2CCc3c(N4CCC(CN5CC6(CCN(Cc7ccc(Cl)c(N8CCC(=O)NC8=O)c7)CC6(F)F)C5)CC4)cccc32)nn2c(C(=O)N[C@@H]3C[C@@H]3F)cnc12
2. CNc1cc(N2CCc3c(CN4CCC(N5CCC6(CCN(C(=O)c7cc(N8CCC(=O)NC8=O)c(Cl)c(C)n7)CC6)CC5)C(F)(F)C4)cc(F)cc32)nn2c(C(=O)N[C@@H]3CC[C@H]3OC)cnc12 (stereo partly shown)
3. CNc1cc(N2CCc3c(C4CCCN(CC5CN(c6ccc7c(c6)n(C)c(=O)n7C6CCC(=O)NC6=O)C5)C4)cccc32)nn2c(C(=O)NC3CC3)cnc12 (stereo not shown)
4. CNc1cc(N2CCc3c(-c4ccc(CN5CC6(CCN(Cc7ccc(Cl)c(N8CCC(=O)NC8=O)c7)CC6(F)F)C5)cn4)cccc32)nn2c(C(=O)NC3CCC3OC)cnc12 (stereo not shown)
5. CNc1cc(N2CCc3c(CN4CCN(C5CCC6(CC5)CCN(C(=O)c5ccc(Cl)c(N7CCC(=O)NC7=O)c5)CC6)CC4)cccc32)nn2c(C(=O)N[C@@H]3C[C@@H]3F)cnc12

1. D (D (<50%))
2. A (A (>90%))
3. C (C (75 to 50%))
4. B (B (90 to >75%))
5. A (A (>90%))

###

Biological target: TYK2 (Homo sapiens, UniProt P29597)
Construct: Degradation of TYK2 in cells was quantitatively measured using Meso Scale Discovery (MSD) technology; endogenous in cells; host or cells: OCI-LY10
Sequence (P29597 whole entry): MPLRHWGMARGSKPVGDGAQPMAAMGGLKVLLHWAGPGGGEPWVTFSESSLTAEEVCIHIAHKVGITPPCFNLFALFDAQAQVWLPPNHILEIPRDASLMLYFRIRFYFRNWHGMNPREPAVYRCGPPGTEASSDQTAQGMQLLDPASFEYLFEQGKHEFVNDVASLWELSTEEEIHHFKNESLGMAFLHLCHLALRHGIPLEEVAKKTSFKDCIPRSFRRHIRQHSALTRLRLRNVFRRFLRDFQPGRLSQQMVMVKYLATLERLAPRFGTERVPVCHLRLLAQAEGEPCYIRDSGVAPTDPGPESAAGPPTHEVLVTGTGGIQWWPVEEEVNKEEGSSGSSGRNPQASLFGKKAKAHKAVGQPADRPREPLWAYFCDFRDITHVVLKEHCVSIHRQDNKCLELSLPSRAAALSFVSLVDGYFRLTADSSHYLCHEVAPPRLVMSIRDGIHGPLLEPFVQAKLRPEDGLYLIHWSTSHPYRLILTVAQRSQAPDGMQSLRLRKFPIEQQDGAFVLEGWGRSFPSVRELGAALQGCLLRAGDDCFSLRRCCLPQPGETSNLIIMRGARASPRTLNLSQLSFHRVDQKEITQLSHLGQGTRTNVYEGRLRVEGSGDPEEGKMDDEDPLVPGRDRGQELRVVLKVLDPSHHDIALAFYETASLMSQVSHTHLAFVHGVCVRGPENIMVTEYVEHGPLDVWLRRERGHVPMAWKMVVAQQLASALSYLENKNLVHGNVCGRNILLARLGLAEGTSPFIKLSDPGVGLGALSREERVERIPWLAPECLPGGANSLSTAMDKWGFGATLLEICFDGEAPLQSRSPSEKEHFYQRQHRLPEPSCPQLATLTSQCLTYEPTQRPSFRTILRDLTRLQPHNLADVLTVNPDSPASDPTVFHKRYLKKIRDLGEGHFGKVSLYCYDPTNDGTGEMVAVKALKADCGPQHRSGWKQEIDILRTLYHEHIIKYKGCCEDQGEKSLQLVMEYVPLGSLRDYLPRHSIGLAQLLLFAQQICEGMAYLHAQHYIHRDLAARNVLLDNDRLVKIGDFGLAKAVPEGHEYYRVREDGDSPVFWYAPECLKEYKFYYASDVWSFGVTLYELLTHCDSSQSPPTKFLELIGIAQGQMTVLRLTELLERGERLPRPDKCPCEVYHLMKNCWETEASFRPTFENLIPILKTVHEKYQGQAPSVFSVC
Test: TYK2 MSD degradation in OCI-LY10 cells
Format: cell-based
Settings: TYK2 degradation in OCI-LY10 cells, 4 to 24 hours incubation
measured.endpoint: TYK2 MSD OCI-LY10 Dmax %

# compound, value.measured
data = [
    ("CNc1cc(N2CCc3c(-c4ccc(CC5(F)CC6(CCN(C(=O)c7cc(N8CCC(=O)NC8=O)c(C)cc7F)CC6)C5)cn4)cccc32)nn2c(C(=O)N[C@@H]3CC[C@H]3OC)cnc12", "A (A (>90%))"),
    ("CNc1cc(N2CCc3c(CN4CCC(N5CCC6(CC5)CN(C(=O)c5ccc(Cl)c(N7CCC(=O)NC7=O)c5)C6)C(F)(F)C4)cccc32)nn2c(C(=O)N[C@@H]3C[C@@H]3F)cnc12 (some centres unmarked)", "A (A (>90%))"),
    ("CNc1cc(N2CCc3c([C@@H](C)N4CC[C@H](N5CCC6(CCN(C(=O)c7cc(C)c(Cl)c(N8CCC(=O)NC8=O)c7)CC6)CC5)C(F)(F)C4)cccc32)nn2c(C(=O)N[C@@H]3CC[C@H]3OC)cnc12", "A (A (>90%))"),
]

###

Give DC50 for every item shown.
Target: TYK2 (Homo sapiens, UniProt P29597)
Construct: Degradation of TYK2 in cells was quantitatively measured using Meso Scale Discovery (MSD) technology; endogenous in cells; host or cells: OCI-LY10
Experiment: TYK2 MSD degradation in OCI-LY10 cells
Assay type: cell-based
Conditions: TYK2 degradation in OCI-LY10 cells, 4 to 24 hours incubation, read-out: TYK2 MSD OCI-LY10 Rel-DC50

Reference set, count: 9
# compound, DC50
data = [
    ("CNc1cc(N2CCc3c(N4CCN(CCC5CC6(CCN(C(=O)c7ccc(Cl)c(N8CCC(=O)NC8=O)c7)CC6)C5)CC4)cccc32)nn2c(C(=O)N[C@@H]3C[C@@H]3F)cnc12", "< 0.01 µM"),
    ("CNc1cc(N2CCc3c(CN4CCC(N5CCC(CC#Cc6ccc7c(c6)n(C)c(=O)n7C6CCC(=O)NC6=O)CC5)C(F)(F)C4)cccc32)nn2c(C(=O)N[C@@H]3C[C@@H]3F)cnc12 (stereo partly shown)", "> 0.1 µM"),
    ("CNc1cc(-c2ccc(N3CCN(CC4CC5(CCN(C(=O)c6ccc(Cl)c(N7CCC(=O)NC7=O)c6)CC5)C4)CC3)cc2)nn2c(C(=O)N[C@@H]3C[C@@H]3F)cnc12", "> 0.1 µM"),
    ("CNc1cc(N2CCc3c(-c4ncc(CN5CC6(CCN(C(=O)c7cc(N8CCC(=O)NC8=O)c(C)c(Cl)c7F)CC6(F)F)C5)cc4F)cccc32)nn2c(C(=O)N[C@@H]3CC[C@H]3OC)cnc12", "< 0.001 µM"),
    ("CNc1cc(N2CCc3c(-c4ncc([C@H](C)N5CC6(CCN(C(=O)c7cc(C)c(Cl)c(N8CCC(=O)NC8=O)c7)CC6(F)F)C5)cc4F)cccc32)nn2c(C(=O)N[C@@H]3CC[C@H]3OC)cnc12", "< 0.001 µM"),
    ("CNc1cc(N2CCc3c(-c4ccc(CC5CCC6(CC5)CCN(C(=O)c5cc(C)c(Cl)c(N7CCC(=O)NC7=O)c5)CC6)cn4)cccc32)nn2c(C(=O)N[C@@H]3CC[C@H]3OC)cnc12", "< 0.01 µM"),
    ("CNc1cc(N2CCc3c(-c4ncc(CN5CC6(CCN(C(=O)c7cc(OC)c(C)c(N8CCC(=O)NC8=O)c7)CC6(F)F)C5)cc4F)cccc32)nn2c(C(=O)N[C@@H]3CC[C@H]3OC)cnc12", "< 0.001 µM"),
    ("CNc1cc(N2CCc3c(-c4ccc(OC5CC6(CCN(C(=O)c7ccc(Cl)c(N8CCC(=O)NC8=O)c7)CC6)C5)cn4)cccc32)nn2c(C(=O)N[C@@H]3C[C@@H]3F)cnc12", "< 0.001 µM"),
    ("CNc1cc(N2CCc3c(-c4ccc(CN5CCC6(CC5)CCN(c5cccc7c5n(C)c(=O)n7C5CCC(=O)NC5=O)CC6)cn4)cccc32)nn2c(C(=O)NC3CC3)cnc12 (stereo not shown)", "< 0.01 µM"),
]

I have this compound here, CNc1cc(N2CCc3c(-c4ccc(CN5CC6(CCN(Cc7ccc(Cl)c(C8CCC(=O)NC8=O)c7)CC6(F)F)C5)cn4)cccc32)nn2c(C(=O)N[C@@H]3C[C@@H]3F)cnc12 (stereo partly shown) , and I need its recorded DC50. < 0.01 µM

###

Target: TYK2 (Homo sapiens)
Construct: Degradation of TYK2 in cells was quantitatively measured using Meso Scale Discovery (MSD) technology; endogenous in cells; host or cells: OCI-LY10
Experiment: TYK2 MSD degradation in OCI-LY10 cells
Assay type: cell-based
Conditions: TYK2 degradation in OCI-LY10 cells, 4 to 24 hours incubation
measured.endpoint: TYK2 MSD OCI-LY10 Dmax %

# compound, TYK2 MSD OCI-LY10 Dmax %
data = [
    ("CNc1cc(N2CCc3c(-c4ccc(N5CC6(CCN(Cc7ccc(N8CCC(=O)NC8=O)c(Cl)c7)CC6)C5)cn4)cccc32)nn2c(C(=O)N[C@@H]3C[C@@H]3F)cnc12 [I-881]", "B (B (90 to >75%))"),
    ("CNc1cc(N2CCc3c(CN4CCC(N5CCC(N6CCN(c7ccc8c(c7)n(C)c(=O)n8C7CCC(=O)NC7=O)CC6)CC5)C(F)(F)C4)cccc32)nn2c(C(=O)NC3CC3)cnc12 (centres unmarked) [I-62]", "B (B (90 to >75%))"),
    ("CNc1cc(N2CCc3c(C4CCCN(CC5CC6(C5)CN(c5ccc7c(c5)n(C)c(=O)n7C5CCC(=O)NC5=O)C6)C4)cccc32)nn2c(C(=O)NC3CC3)cnc12 (centres unmarked) [I-59]", "D (D (<50%))"),
    ("CNc1cc(N2CCc3c(-c4ncc(CN5CC6(CCN(C(=O)c7cc(C)c(OC)c(N8CCC(=O)NC8=O)c7)CC6(F)F)C5)cc4F)cccc32)nn2c(C(=O)N[C@@H]3CC[C@H]3OC)cnc12 [I-1138]", "B (B (90 to >75%))"),
    ("CNc1cc(N2CCc3c(CN4CC[C@@H](N5CCC6(CC5)CN(C(=O)c5cc(Cl)c(C)c(N7CCC(=O)NC7=O)c5)C6)C(F)(F)C4)cccc32)nn2c(C(=O)N[C@@H]3CC[C@H]3OC)cnc12 [I-1141]", "A (A (>90%))"),
]

State recorded TYK2 MSD OCI-LY10 Dmax % for all listed compounds.
1. CNc1cc(N2CCc3c(-c4ncc(CN5CCC6(CCN(C(=O)c7cc(C)c(Cl)c(N8CCC(=O)NC8=O)c7)CC6)C(F)(F)C5)cn4)cccc32)nn2c(C(=O)N[C@@H]3C[C@@H]3F)cnc12 [I-799]
2. CNc1cc(N2CCc3c(CN4CCC(N5CCC6(CCN(C(=O)c7cc(N8CCC(=O)NC8=O)c(Cl)cc7F)CC6)CC5)C(F)(F)C4)cccc32)nn2c(C(=O)N[C@@H]3CC[C@H]3OC)cnc12 (some centres unmarked) [I-1084]
3. CNc1cc(N2CCc3c(-c4ccc(CN5CC6(CCN(C(=O)c7ccc(N8CCC(=O)NC8=O)c(Cl)c7)CC6)C5)cn4)cccc32)nn2c(C(=O)N[C@@H]3C[C@@H]3F)cnc12 [I-896]
4. CNc1cc(N2CCc3c(-c4ccc(CN5CC6(CCN(C(=O)c7ccc(Cl)c(N8CCC(=O)NC8=O)c7)CC6(F)F)C5)cn4)cccc32)nn2c(C(=O)N[C@H]3C[C@@H](F)C3)cnc12 [I-883]

1. B (B (90 to >75%))
2. A (A (>90%))
3. D (D (<50%))
4. A (A (>90%))

Batch lookup, TYK2 MSD OCI-LY10 Dmax % per entry.
1. CNc1cc(N2CCc3c(CN4CCC(N5CCC6(CCN(C(=O)c7cc(N8CCC(=O)NC8=O)c(C)cc7Cl)CC6)CC5)C(F)(F)C4)cccc32)nn2c(C(=O)N[C@@H]3C[C@@H]3F)cnc12 (some centres unmarked) [I-845]
2. CNc1cc(N2CCc3c(-c4ccc(CN5CC6(CCN(C(=O)c7ccc(Cl)c(N8CCC(=O)NC8=O)c7)CC6)C5)cc4)cccc32)nn2c(C(=O)N[C@@H]3C[C@@H]3F)cnc12 [I-73]
3. CNc1cc(N2CCc3c(CN4CCC(N5CCC(C6CCN(C(=O)c7ccc(Cl)c(N8CCC(=O)NC8=O)c7)CC6)CC5)C(F)(F)C4)cccc32)nn2c(C(=O)N[C@@H]3CC[C@H]3OC)cnc12 (some centres unmarked) [I-1069]
4. CNc1cc(N2CCc3c(CN4CCC(CN5CC6(CCN(C(=O)c7ccc(Cl)c(N8CCC(=O)NC8=O)c7)CC6)C5)CC4)cccc32)nn2c(C(=O)N[C@@H]3C[C@@H]3F)cnc12 [I-894]
5. CNc1cc(N2CCc3c([C@H](C)N4CC[C@H](N5CCC6(CCN(C(=O)c7cc(C)c(Cl)c(N8CCC(=O)NC8=O)c7)CC6)CC5)C(F)(F)C4)cccc32)nn2c(C(=O)N[C@@H]3CC[C@H]3OC)cnc12 [I-1127]
6. CNc1cc(N2CCc3c(-c4ccc(CN5CCC6(CCN(C(=O)c7cc(C)c(Cl)c(N8CCC(=O)NC8=O)c7)CC6)C(F)(F)C5)cn4)cccc32)nn2c(C(=O)NC3CCC3(F)F)cnc12 (centres unmarked) [I-996]

A (A (>90%))
C (C (75 to 50%))
A (A (>90%))
B (B (90 to >75%))
A (A (>90%))
B (B (90 to >75%))

Dear reader, for each entry below, please note its TYK2 MSD OCI-LY10 Dmax %.
1. CNc1cc(N2CCc3c(-c4ccc(CN5CCC6(CCN(C(=O)c7ccc(Cl)c(N8CCC(=O)NC8=O)c7)C6)C5)cn4)cccc32)nn2c(C(=O)NC3CC3F)cnc12 (centres unmarked) [I-302]
2. CNc1cc(N2CCc3c(-c4ccc(CN5CCC(N6CCN(c7ccc8c(c7)n(C)c(=O)n8C7CCC(=O)NC7=O)CC6)C(F)(F)C5)cn4)cc(F)cc32)nn2c(C(=O)NC3CC3)cnc12 (centres unmarked) [I-61]
3. CNc1cc(N2CCc3c(-c4ccc(CN5CC6(CCN(C(=O)c7ccc(OC)c(N8CCC(=O)NC8=O)c7)CC6)C5)cn4)cccc32)nn2c(C(=O)N[C@@H]3C[C@@H]3F)cnc12 [I-64]
4. CNc1cc(N2CCc3c(-c4ccc(CN5CCC(N6CCC7(CC6)CN(c6cccc8c6n(C)c(=O)n8C6CCC(=O)NC6=O)C7)C(F)(F)C5)cn4)cccc32)nn2c(C(=O)N[C@@H]3C[C@@H]3F)cnc12 (some centres unmarked) [I-280]

1. C (C (75 to 50%))
2. B (B (90 to >75%))
3. A (A (>90%))
4. B (B (90 to >75%))

Requested read-out TYK2 MSD OCI-LY10 Dmax %, target or system TYK2 (Homo sapiens), entry CNc1cc(N2CCc3c(CN4CCC(N5CCC6(CCN(C(=O)c7cc(N8CCC(=O)NC8=O)c(C)cn7)CC6)CC5)C(F)(F)C4)cccc32)nn2c(C(=O)N[C@@H]3C[C@@H]3F)cnc12 (some centres unmarked) [I-1022] B (B (90 to >75%))
